# maps each entry to its glycan array binding signal (z-score)
# Tested system: Neu5Ac(a2-3)Gal(b1-3)GalNAc(b1-3)Gal(b1-4)GlcNAc
# Protocol text: glycan array binding signal (z-score within array); higher = stronger binding
# Assay setup: glycan notation: IUPAC condensed, linker removed
The full list was thinned out, with the strongest signals kept by preference.
Answer with a bare number; do not write a unit.

Previously resolved entries follow.
{"Binder": "S100A12 (Homo sapiens), P80511 (protein) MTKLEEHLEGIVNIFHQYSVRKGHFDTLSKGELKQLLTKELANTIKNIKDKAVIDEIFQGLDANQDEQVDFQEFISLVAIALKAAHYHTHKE", "glycan array binding signal (z-score)": -0.704}
{"Binder": "MCL (Mus musculus), Q9Z2H6 (protein) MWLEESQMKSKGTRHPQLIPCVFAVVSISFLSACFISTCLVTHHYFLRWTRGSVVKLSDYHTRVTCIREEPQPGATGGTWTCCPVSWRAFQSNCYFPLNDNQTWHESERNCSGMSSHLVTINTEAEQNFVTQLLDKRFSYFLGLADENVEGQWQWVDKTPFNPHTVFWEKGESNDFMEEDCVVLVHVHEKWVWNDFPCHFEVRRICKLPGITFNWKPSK", "glycan array binding signal (z-score)": -0.471}
{"Binder": "LTL (Lotus tetragonolobus), P19664 (protein) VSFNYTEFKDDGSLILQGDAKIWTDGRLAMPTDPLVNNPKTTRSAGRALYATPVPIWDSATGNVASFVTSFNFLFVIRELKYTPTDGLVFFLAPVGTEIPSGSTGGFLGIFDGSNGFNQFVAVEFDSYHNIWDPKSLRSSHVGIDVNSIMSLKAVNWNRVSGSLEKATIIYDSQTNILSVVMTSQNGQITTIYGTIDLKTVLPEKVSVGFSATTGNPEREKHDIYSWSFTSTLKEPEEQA", "glycan array binding signal (z-score)": -0.26}

Next binder, please.
Problem: Quickly give me recorded glycan array binding signal (z-score) for Jacalin (Artocarpus integrifolia) (protein) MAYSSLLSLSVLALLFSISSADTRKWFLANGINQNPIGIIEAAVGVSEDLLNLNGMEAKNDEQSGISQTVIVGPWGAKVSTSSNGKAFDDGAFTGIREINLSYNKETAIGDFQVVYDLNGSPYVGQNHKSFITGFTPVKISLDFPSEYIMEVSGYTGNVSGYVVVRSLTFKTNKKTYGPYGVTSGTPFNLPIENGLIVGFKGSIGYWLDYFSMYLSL
Solution: -0.336

The values you see were collected from the supplement of paper PMC8728848.
